The following compounds are shown together with reported GI50 values.
Tested on: NCI-H522
Assay Comment: NCI tumour cell line growth inhibition, 48 h
Active and inactive are the calls of the source. Cut-off read from the data, not from the text of the source: active = GI50 up to about 1.1 µM and inactive = higher.

Example results:
Nc1cc(CO)cc(Nc2c3ccccc3nc3occc23)c1; 14.4 µM (inactive)
O=C1CCCc2cc3c(cc21)CC1(C3)Cc2ccc3c(c2C1)C(=O)CCC3 (configuration not stated); 20.9 µM (inactive)
O=C1C=CC2(C=C1)CCC(=O)O2; 2.34 µM (inactive)
CCOC(=O)NC(OCc1ccccc1)(C(=O)OC)C(F)(F)F (configuration not stated); > 100 µM (inactive)

Task item: So what does the record say about GI50 for CC1=Nc2ccccc2S(=O)(=O)N1 ?
Reply: > 100 µM (inactive)

Task item: So what does the record say about GI50 for Cc1cccc(NS(=O)(=O)c2ccc3c(c2)OCCOCCOCCOCCO3)c1 ?
Reply: 16.1 µM (inactive)

Task item: So what does the record say about GI50 for N#C/C(=C1\OC(=N)C(c2ccc(Cl)cc2Cl)C1=O)c1ccc(Cl)cc1Cl (configuration not stated) ?
Reply: > 100 µM (inactive)

Task item: So what does the record say about GI50 for OCCNc1ncnc2c1ncn2C1OC(CO)C(O)C1O (configuration not stated) ?
Reply: 47.3 µM (inactive)

Task item: So what does the record say about GI50 for O=C(/C=C1/Nc2ccc([N+](=O)[O-])cc2N/C1=C/C(=O)c1ccc(Cl)cc1)c1ccc(Cl)cc1 ?
Reply: 4.41 µM (inactive)

Task item: So what does the record say about GI50 for Cc1nnc2n1-c1ccccc1C(=S)N1CSCC21 (configuration not stated) ?
Reply: > 100 µM (inactive)
